# measurement target: Alpha-2B adrenergic receptor (Homo sapiens); also: assay procedure not described here
# Sequence (P18089 whole entry): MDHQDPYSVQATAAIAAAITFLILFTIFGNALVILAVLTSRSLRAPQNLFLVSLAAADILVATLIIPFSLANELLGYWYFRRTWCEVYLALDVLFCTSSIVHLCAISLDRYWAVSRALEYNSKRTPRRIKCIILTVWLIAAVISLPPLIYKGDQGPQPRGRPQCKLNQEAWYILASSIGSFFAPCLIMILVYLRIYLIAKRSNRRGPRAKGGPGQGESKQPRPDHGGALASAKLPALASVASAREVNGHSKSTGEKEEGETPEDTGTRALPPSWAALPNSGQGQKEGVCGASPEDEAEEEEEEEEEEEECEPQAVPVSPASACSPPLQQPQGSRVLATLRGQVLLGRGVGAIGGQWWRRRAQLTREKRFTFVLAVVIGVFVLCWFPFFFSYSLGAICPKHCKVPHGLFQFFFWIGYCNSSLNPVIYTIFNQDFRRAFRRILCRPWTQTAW

compound | AC50
CN(C)[C@@H]1C(O)=C(C(=O)NCN2CCCC2)C(=O)[C@@]2(O)C(O)=C3C(=O)c4c(O)cccc4[C@@](C)(O)[C@H]3C[C@@H]12 | > 10 µM
O=C(O)c1nn(Cc2ccc(Cl)cc2Cl)c2ccccc12 | > 30 µM
CC(=O)SCC(Cc1ccccc1)C(=O)NCC(=O)OCc1ccccc1 (stereo unspecified) | > 30 µM
O=C(O)CCCC[C@@H]1SC[C@@H]2NC(=O)N[C@@H]21 | > 10 µM
CC1=C(/C=C/C(C)=C/C=C/C(C)=C/C(=O)Oc2c(C)c(C)c3c(c2C)CCC(C)(CCCC(C)CCCC(C)CCCC(C)C)O3)C(C)(C)CCC1 (stereo unspecified) | > 30 µM
O=C(O)c1ccc2nc(-c3cc(Cl)cc(Cl)c3)oc2c1 | > 30 µM
CC(=O)NC[C@H]1CN(c2ccc(N3CCOCC3)c(F)c2)C(=O)O1 | > 30 µM
CCCCCCCC(=O)CC[C@@H]1[C@@H](C/C=C\CCCC(=O)O)[C@@H](O)C[C@H]1O | > 30 µM
CCC(=O)O[C@H](CC(=O)O)C[N+](C)(C)C [LEVOCARNITINE PROPIONATE] | > 30 µM
CC(C)/N=c1\cc2n(-c3ccc(Cl)cc3)c3ccccc3nc-2cc1Nc1ccc(Cl)cc1 | > 30 µM
CCOCC(O)COc1ccc(NC(=O)CC[S+](C)C)cc1 (stereo unspecified) | > 30 µM
CN1C(=O)CN=C(c2ccccc2F)c2cc([N+](=O)[O-])ccc21 | > 10 µM
CC(C)C[C@H](NC(=O)[C@H](Cc1ccccc1)NC(=O)c1cnccn1)B(O)O | > 30 µM
CCOC(=O)O[C@]1(C(=O)COC(=O)CC)CC[C@H]2[C@@H]3CCC4=CC(=O)C=C[C@]4(C)[C@H]3[C@@H](O)C[C@@]21C [PREDNICARBATE] | > 10 µM
CC(=O)Oc1cccc2c1C(=O)c1c(OC(C)=O)cc(C(=O)O)cc1C2=O | > 30 µM
CO/N=C(\C(=O)N[C@@H]1C(=O)N2C(C(=O)[O-])=C(C[n+]3ccc(N)n3CCO)CS[C@H]12)c1csc(N)n1 | > 30 µM
